assay: Assay B: Microsomal clearance; type: in vitro ADME, human; settings: compounds of the invention; pooled liver microsomes 1 mg/ml, test compound 1 μM, NADPH, 37° C.
measuredMetric: human LM (% Qh)

1: NC(=O)c1csc2ncn(Cc3nc(C[C@H](O)c4cc5cc(F)ccc5o4)no3)c(=O)c12
2: NC(=O)c1csc2ncn(Cc3nc(C[C@H](O)c4cc5ccccc5s4)no3)c(=O)c12
When the recorded human LM values are compared, which is smaller: that of 1 or that of 2 ? Write down the label attached to your selection.
1

----------
assay: Assay B: Microsomal clearance; type: in vitro ADME, human; conditions: compounds of the invention; pooled liver microsomes 1 mg/ml, test compound 1 μM, NADPH, 37° C.
measuredMetric: human LM (% Qh)

{"columns": ["compound", "resultUnit", "recordedMeasurement"],
 "data": [
  ["NC(=O)c1csc2ncn(Cc3nc(C[C@H](O)c4ccc(Cl)s4)no3)c(=O)c12 [Example 9]", "% Qh", 27],
  ["NC(=O)c1csc2ncn(Cc3nc(C[C@H](O)c4cc5ccc(F)cc5s4)no3)c(=O)c12 [Example 2]", "% Qh", 43],
  ["NC(=O)c1csc2ncn(Cc3nc(C[C@H](O)c4cc5cc(Cl)ccc5o4)no3)c(=O)c12 [Example 4]", "% Qh", 34]
]}

----------
assay: Assay C: Hepatocyte clearance; format: in vitro ADME, human; conditions: compounds of the invention; hepatocyte suspension, 5% species serum, test compound 1 μM, six hours
measuredMetric: human Hepatocytes (% Qh)

Worked examples, 4 compounds total:
{"columns": ["compoundStructureString", "resultUnit", "human Hepatocytes"],
 "data": [
  ["NC(=O)c1csc2ncn(Cc3nc(C[C@H](O)c4ccc(I)cc4)no3)c(=O)c12", "% Qh", 24],
  ["Cc1ccc([C@@H](O)Cc2noc(Cn3cnc4scc(C(N)=O)c4c3=O)n2)cc1", "% Qh", 26],
  ["COc1ccc([C@@H](O)Cc2noc(Cn3cnc4scc(C(N)=O)c4c3=O)n2)cc1", "% Qh", 19],
  ["NC(=O)c1csc2ncn(Cc3nc(C[C@H](O)c4cc5ccc(F)cc5s4)no3)c(=O)c12", "% Qh", 36]
]}

A: NC(=O)c1csc2ncn(Cc3nc(C[C@H](O)c4ccc(F)cc4)no3)c(=O)c12
B: NC(=O)c1csc2ncn(Cc3nc(C[C@H](O)c4ccc(Cl)s4)no3)c(=O)c12
When the recorded human Hepatocytes values are compared, which is smaller: that of A or that of B ? Write down the label attached to your selection.
A
(A: 13 % Qh, B: 61 % Qh)

a: NC(=O)c1csc2ncn(Cc3nc(C[C@H](O)c4ccc(Cl)cc4)no3)c(=O)c12
b: NC(=O)c1csc2ncn(Cc3nc(C[C@H](O)c4cc5cc(Cl)ccc5o4)no3)c(=O)c12
Return label of the item with the larger human Hepatocytes. Candidates: a , b . Write down the label attached to your selection.
b
